Attribution: patent US20170281720A1

Each entry below carries its reported pKi.
target: T1, MDM2 (In-house, 41 kD) (UniProt Q00987 1-125, limits assumed)
T1 construct: Only 'In-house, 41 kD' is said of the protein used in the fluorescence polarization assays; also called HDM2
T1 sequence (Q00987 1-125 limits assumed): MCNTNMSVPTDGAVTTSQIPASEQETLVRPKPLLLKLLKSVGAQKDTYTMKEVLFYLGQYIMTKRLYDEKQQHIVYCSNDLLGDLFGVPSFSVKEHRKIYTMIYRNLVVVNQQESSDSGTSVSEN
protocol description: competitive fluorescence polarization on MDM2 against FAM-labeled linear peptide; grade, scale in paragraph 462
pKi: −log10 of the molar value. Bridges are numbered along the chain shown (N, C = ends). [ ]: non-standard residue; d: D form. R8 = C=CCCCCCC[C@@](C)(N)C(=O)O; Cba = N[C@@H](CC1CCC1)C(=O)O; S5 = C=CCCC[C@](C)(N)C(=O)O

Ac-LTF[R8]EYWASL[S5]AAAAA[dA]-NH2 (staple 4-11, stapled peptidomimetic macrocycle) [SP610, Ac-LTF$r8EYWASL$AAAAAa-NH2]: ≥ 8.00
Ac-LTF[R8]EYWANL[S5]AAAAA[dA]-NH2 (staple 4-11, stapled peptidomimetic macrocycle) [SP611, Ac-LTF$r8EYWANL$AAAAAa-NH2]: ≥ 8.00

**Query** Quick one: pKi for Ac-LTF[R8]EYWAQ[Cba][S5]S-NH2 (staple 4-11, stapled peptidomimetic macrocycle) [SP595, Ac-LTF$r8EYWAQCba$S-NH2] ?
**Result** < 6.00
